Attribution: PubChem BioAssay (NCATS)

Test system: NIH3T3
Assay: qHTS assay to identify novel small-molecules to repurpose for Merkel cell carcinoma treatment (AID 1296009); note: nearly all actives have a fitted effect of over 60% in size
Details: MCC and control cell lines, CellTiter-Glo viability, 72 h; at 44.8 µM (top of the series) unless noted
Results filed as inconclusive are left out. Activity calls are given as the source filed them. Calls come from the whole dose curve; as a rule, active = well fitted inhibition curve with a large enough effect; inconclusive = small, poorly fitted or top-dose-only effect; inactive = flat fitted curve, though single readings scatter.
readout-name: outcome

Below, 5 compounds whose answers are already recorded.
O=C(O)CC1CCC(c2ccc(NC(=O)c3nnc(Nc4ccc(F)c(F)c4)o3)cc2)CC1 (centres undefined)
inactive
CC1(O)CCC2C(C3C1CCC3(C)O)C2(C)C (centres undefined)
inactive
C=C1C(OC(C)=O)CCC2(C)CC3(O)OC(=O)C(C)=C3CC12 (centres undefined)
inactive
CN1CCN(C(=O)c2cc3cc(Cl)ccc3[nH]2)CC1
inactive
C/C=C1/CC2C(=O)Nc3cc(O)c(OC)cc3C(=O)N2C1 (centres undefined)
inactive

Sure, the documented outcome for CC1(C)C2CC[C@@]34CC(CC[C@H]3[C@]2(C)CC[C@@H]1O[C@@H]1O[C@H](CO)[C@@H](O)[C@H](O)[C@H]1O)[C@](C)(O)C4 (some centres undefined) is inactive [at 17.4 µM]

Sure, the documented outcome for C=C1CCC2[C@@](C)(C(=O)O)CCC[C@@]2(C)[C@@H]1CCc1ccoc1 (some centres undefined) is inactive

Sure, the documented outcome for C=CC(C)(O)CC/C=C(\C)C1CC=C(C)C(=O)O1 (centres undefined) is inactive

Sure, the documented outcome for C[C@H]1[C@H](C)C[C@@H](C(=O)O)C2CC[C@]3(C)C(=CC[C@@H]4[C@@]5(C)CC[C@H](O)C(C)(C)[C@@H]5CC[C@]43C)[C@@H]21 (some centres undefined) is inactive

Sure, the documented outcome for CCC1OC(=O)C(C)CC(C)C(=O)/C(C)=C/C(C)C(=O)/C=C/C1(C)O (centres undefined) is inactive

* * *

Test: P-glycoprotein substrates identified in KB-8-5-11 adenocarcinoma cell line, qHTS therapeutic library screen (AID 1346987); note: nearly all actives have a fitted effect of over 65% in size; for activity change, negative = cytotoxicity: % is set by controls: 0 for no effect and ±100 for the full control effect
Conditions: KB-8-5-11 (P-gp overexpressing) viability, CellTiter-Glo, 72 h; series mostly up to 44.5 µM
Results filed as inconclusive are left out. Calls of active or inactive are those of the source. The call rests on the fitted dose curve; in most records, active means well fitted inhibition curve with a large enough effect; inconclusive means small, poorly fitted or top-dose-only effect; inactive means flat fitted curve, though single readings scatter.
readout-name: activity change, negative = cytotoxicity

Below, 5 compounds whose answers are already recorded.
NCCCCN(Cc1nc2ccccc2[nH]1)[C@H]1CCCc2cccnc21
inactive
CC(C)CC(=O)O[C@@H]1O[C@H](CO)[C@@H](O[C@H]2O[C@H](C)[C@@H](N[C@H]3C=C(CO)[C@@H](O[C@H]4O[C@H](CO)[C@@H](O[C@H]5O[C@H](CO)[C@@H](O[C@H]6O[C@H](CO)[C@@H](O)[C@H](O)[C@H]6O)[C@H](O)[C@H]5O)[C@H](O)[C@H]4O)[C@H](O)[C@H]3O)[C@H](O)[C@H]2O)[C@H](O)[C@H]1O
8.1% [at 9.29 µM] (inactive)
CC(C)=CCC[C@](C)(O[C@@H]1O[C@H](CO[C@@H]2OC[C@H](O)[C@H](O)[C@H]2O)[C@@H](O)[C@H](O)[C@H]1O)[C@H]1CC[C@]2(C)[C@@H]1[C@H](O)C[C@@H]1[C@@]3(C)CC[C@H](O[C@@H]4O[C@H](CO)[C@@H](O)[C@H](O)[C@H]4O[C@@H]4O[C@H](CO)[C@@H](O)[C@H](O)[C@H]4O)C(C)(C)[C@@H]3CC[C@]12C
inactive
C=C1C[C@H](O)[C@@H](O)[C@@]2(C)C1[C@@H](O)[C@H]1OC(=O)C3[C@@H](C)[C@@H](O)[C@H](O)C2[C@]31C (stereo partly specified)
inactive
C=C[C@@]1(C)CCC2=C([C@H]1OC(C)=O)[C@H](OC(C)=O)CC1[C@](C)(C(=O)OC)CC[C@H](OC(C)=O)[C@]21C (stereo partly specified)
inactive

Shift focus to the following entry.
Sure, the documented activity change, negative = cytotoxicity for CC1(C)OC(=O)CC(O)C2(C)C1CC(=O)C1(C)C2C(O)CC2(C)C(c3ccoc3)OC(=O)C3OC321 (stereo unspecified) is inactive

* * *

Test system: Hek293T
Assay: Primary qHTS to identify gynecologic anti-cancer compounds using libraries of approved drugs and bioactive compounds (AID 1345084); note: % is set by controls: 0 for no effect and ±100 for the full control effect; nearly all actives have a fitted effect of over 55% in size
Settings: Gynecologic cancer cell panel viability, ATPlite luminescence, 48 h, control line for the selectivity index; series mostly up to 57.5 µM
Results filed as inconclusive are left out. The source made the active and inactive calls. The call rests on the fitted dose curve; in most records, active means well fitted cell-killing curve with a large enough effect; inconclusive means small, poorly fitted or top-dose-only effect, or effect the other way; inactive means flat fitted curve, though single readings scatter.
readout-name: activity change, negative = cytotoxicity

C[C@@H]1O[C@@H](O[C@@H]2\C=C/C=C\C=C/C=C\C[C@H](C)OC(=O)/C=C\[C@H]3O[C@@H]3C[C@H](O)C[C@]3(O)C[C@@H](O)[C@@H](C(=O)O)[C@H](C2)O3)[C@H](O)[C@H](N)[C@@H]1O
inactive
CCC(C)C1NC(=O)C2C(C)CCN2C(=O)C(CC(O)CO)OC(=O)CCNC(=O)C(C)N(C)C(=O)C(C(C)C)N(C)C1=O (stereo not given)
inactive
COC(=O)[C@]1(C)CCC[C@@]2(C)C(=O)CC[C@H]3C(=O)C=C(CC[C@@H]21)C3O (stereo not given in full)
inactive
CC1(C)CC[C@]2(C(=O)O[C@@H]3O[C@H](CO[C@@H]4O[C@H](CO)[C@@H](O)[C@H](O)[C@H]4O)[C@@H](O)[C@H](O[C@@H]4O[C@H](CO)[C@@H](O)[C@H](O)[C@H]4O)[C@H]3O)[C@H](O)C[C@]3(C)C(=CCC4[C@@]5(C)CC[C@H](O[C@@H]6OC[C@@H](O)[C@H](O)[C@H]6O)[C@@](C)(C(=O)O)C5CC[C@]43C)[C@@H]2C1 (stereo not given in full)
10.6% [at 11.6 µM] (inactive)

Shift focus to the following entry.
Sure, the documented activity change, negative = cytotoxicity for COc1ccc(OC2OC(CO[C@@H]3O[C@@H](C)[C@H](O)[C@@H](O)[C@H]3O)C(O)C(O)C2O)cc1OC (stereo not given in full) is inactive

* * *

Tested on: NIH3T3
Assay: qHTS assay to identify novel small-molecules to repurpose for Merkel cell carcinoma treatment (AID 1296009); note: nearly all actives have a fitted effect of over 60% in size
Settings: MCC and control cell lines, CellTiter-Glo viability, 72 h; at 44.8 µM (top of the series) unless noted
Results filed as inconclusive are left out. Active and inactive are the calls of the source. Calls come from the whole dose curve; as a rule, active = well fitted inhibition curve with a large enough effect; inconclusive = small, poorly fitted or top-dose-only effect; inactive = flat fitted curve, though single readings scatter.
readout-name: outcome

O=C(O)CCc1cc2ccoc2cc1O[C@@H]1O[C@H](CO)[C@@H](O)[C@H](O)[C@H]1O
inactive
CC[C@H]1OC(=O)[C@H](C)C(=O)[C@H](C)[C@@H](OC2O[C@H](C)C[C@H](N(C)C)[C@H]2O)[C@@H](C)C[C@@H](C)C(=O)/C=C/[C@]1(C)O (some centres undefined)
inactive [at 17.4 µM]
OC[C@@]1(O)CO[C@@H](OC[C@H]2O[C@@H](Oc3ccccc3)[C@H](O)[C@@H](O)[C@@H]2O)[C@@H]1O
inactive
CC(=O)NC1C(OC2CCC3(C)C(CCC4(C)C3CC=C3C5CC(C)(C)CCC5(C(=O)O)C(O)CC34C)C2(C)C)OC(CO)C(O)C1O (centres undefined)
inactive [at 17.4 µM]
COc1cc(/C=C/C(=O)O[C@H]2[C@@H]3C=CO[C@@H](O[C@@H]4O[C@H](CO)[C@@H](O)[C@H](O)[C@H]4O)[C@@H]3[C@@]3(CO)O[C@@H]23)ccc1O
inactive [at 17.4 µM]
COc1ccc(/C=C/C(=O)O[C@@H]2[C@@H](OC(C)=O)[C@@H](OC(C)=O)[C@H](O[C@H]3[C@@H]4C=CO[C@@H](O[C@@H]5O[C@H](CO)[C@@H](O)[C@H](O)[C@H]5O)[C@@H]4[C@@]4(CO)O[C@@H]34)O[C@H]2C)cc1
inactive [at 17.4 µM]
COc1cc(C(=O)OC[C@H]2O[C@@H](OC(C)(C)C(=O)O)[C@H](O)[C@@H](O)[C@@H]2O)cc(OC)c1O
inactive [at 17.4 µM]
Cc1occc1C(=O)n1ccnc1
inactive

Sure, the documented outcome for COc1ccc(-n2c(=O)[nH]c3cc(C(=O)NCc4ccc(Cl)cc4)sc3c2=O)nc1OC is inactive

Sure, the documented outcome for COc1cc(/C=C/CO[C@@H]2O[C@H](CO)[C@@H](O)[C@H](O)[C@H]2O)cc(OC)c1O[C@@H]1O[C@H](CO)[C@@H](O)[C@H](O)[C@H]1O is inactive [at 17.4 µM]

Sure, the documented outcome for O=S(=O)(O)c1ccc(Nc2ncnc3c2ncn3[C@@H]2O[C@H](CO)[C@@H](O)[C@H]2O)cc1 is inactive

Sure, the documented outcome for Cc1ccc(C)c(S(=O)(=O)n2cnc3ccccc32)c1 is inactive

* * *

Test system: HACAT
Test: qHTS assay to identify novel small-molecules to repurpose for Merkel cell carcinoma treatment (AID 1296009); note: nearly all actives have a fitted effect of over 60% in size
Details: MCC and control cell lines, CellTiter-Glo viability, 72 h; at 44.8 µM (top of the series) unless noted
Results filed as inconclusive are left out. Activity calls are given as the source filed them. Calls come from the whole dose curve; as a rule, active = well fitted inhibition curve with a large enough effect; inconclusive = small, poorly fitted or top-dose-only effect; inactive = flat fitted curve, though single readings scatter.
readout-name: outcome

Below, 8 compounds whose answers are already recorded.
CC(=O)OCC1=CCC2C(C)(C)CCCC2(C)C12CCC(C)(CC(=O)O)O2 (centres undefined)
inactive
CC(=O)O[C@@H]1CC2C(C)(C)C(=O)C=C[C@]2(C)C2CC[C@]3(C)C(=CC(=O)[C@@H]3c3ccoc3)[C@@]21C (some centres undefined)
inactive [at 17.4 µM]
COc1c2c(c(C)c3c1C(=O)OC3)OC1(C)CC(O)C34OC(OC)(CC(O)C3(C)C1C2)OC4(C)C (centres undefined)
inactive [at 17.4 µM]
COC(=O)C(CC1CCCC1)c1ccc(S(C)(=O)=O)cc1 (centres undefined)
inactive
Nc1c(-c2ccccc2)nc(Cl)c2c(O)n[nH]c(=O)c12
inactive
CC(=O)NC(C(=O)OC1CCC(C)(C)C2CC=C3C(=O)OCC3C12C)C(C)C (centres undefined)
inactive
CCC(C)C(=O)O[C@H]1[C@@H](O[C@H]2O[C@H](CO)[C@@H](O)[C@H](O)[C@H]2O)O[C@H](CO)[C@@H](O)[C@@H]1O (some centres undefined)
inactive [at 17.4 µM]
CC(CC(C)O[C@@H]1O[C@H](CO)[C@@H](O)[C@H](O)[C@H]1O)OC(=O)/C=C/c1ccc(O)cc1 (some centres undefined)
inactive [at 17.4 µM]

Shift focus to the following entry.
Sure, the documented outcome for CC1=CC(=O)C(=C(C)C)CC2C(C)(O)CCC12O (centres undefined) is inactive
